Ki values for 5-hydroxytryptamine receptor 7 (Homo sapiens, UniProt P34969) compiled from several publications are listed below.

# compound, qual, Ki (nM)
measured = [
    ("CCN(CCN1CCC(c2noc3cc(F)ccc23)CC1)C(=O)C1CN(C)CCC1O (stereo not drawn)", "=", 14.4),
    ("C#CC(O)C(=O)N(CC)CCN1CCC(c2noc3cc(F)ccc23)CC1 (stereo not drawn)", "=", 10),
    ("CC12CN(c3ccccc3)c3ccccc3C1CCN2 (stereo not drawn)", "=", 6.3),
    ("CCN(CCN1CCC(c2noc3cc(F)ccc23)CC1)C(=O)CC(C)O (stereo not drawn)", "=", 2.7),
    ("NC(N)=NC(=O)c1ccc2c(c1)C1(CCCO1)c1ccsc1-2 (stereo not drawn)", "=", 2.5),
    ("CCN(CCN1CCC(c2noc3cc(F)ccc23)CC1)C(=O)C1(O)CCCN(C(C)=O)C1 (stereo not drawn)", "=", 10.6),
    ("CCc1c(CC)n(Cc2ccc(F)cc2)c2ccc(C(=O)N[C@H]3CCN(C)C3)cc12", "=", 4.9),
    ("CCN(CCN1CCC(c2c[nH]c3cc(F)ccc23)CC1)S(=O)(=O)CCO", "=", 2.8),
    ("CC(C)N(CCN1CCC(c2noc3cc(F)ccc23)CC1)C(=O)[C@H](C)O", "=", 1.8),
    ("CCN(CCN1CCC(c2noc3cc(F)ccc23)CC1)C(=O)C1CN(C)CC1O (stereo not drawn)", "=", 3.6),
    ("CCN(CCN1CCC(c2noc3cc(F)ccc23)CC1)C(=O)C1CN(C(C)=O)CCC1O (stereo not drawn)", "=", 6.8),
    ("CCN(CCN1CCC(c2noc3cc(F)ccc23)CC1)C(=O)C1(O)CCOCC1", "=", 5.2),
    ("Cc1cc2c(cc1Cc1ccc(C(=O)NCc3nc4ccccc4[nH]3)o1)C(C)(C)CCC2(C)C", ">", 4400),
    ("CCN(CCN1CCC(c2noc3cc(F)ccc23)CC1)C(=O)[C@H]1CC[C@H](O)CC1", "=", 4.3),
    ("Cc1c(C(=O)N=C(N)N)cc(C2CCCC2)n1CCc1ccc(F)cc1", "=", 1.3),
    ("NC(N)=NC(=O)c1ccc2c(c1)C1(SCCS1)c1ccsc1-2", "=", 0.78),
    ("O=C1Nc2ccccc2C1CCCCN1CCN(c2cccc(Cl)c2)CC1 (stereo not drawn)", "<", 100000),
    ("CCN(CCN1CCC(c2noc3cc(F)ccc23)CC1)C(=O)C1(O)CCCNC1 (stereo not drawn)", "=", 1.5),
]
